Assay protocol: Inhibition of ACK1 in mouse C8 cells assessed as decrease in cell viability after 20 to 24 hrs
Measured attribute: pIC50
Here pIC50 is given on a logarithmic scale as minus log10 of the concentration in mol/L.

Known pIC50 results, listed for orientation:
>  <Compound structure>
c1ccc(-c2c(-c3ccc(OCCN4CCOCC4)cc3)oc3ncnc(NC[C@@H]4CCCO4)c23)cc1

>  <pIC50>
6.80

$$$$
>  <Compound structure>
Cc1ccccc1-c1c(-c2ccc(OCCN3CCCC3)cc2)[nH]c2ncnc(NC[C@@H]3CCCO3)c12

>  <pIC50>
6.80

$$$$

Now examine the next entry.
Entry under review: `CO[C@@H]1CCC[C@@H]1CNc1ncnc2[nH]c(-c3ccc(OCCN(C)C)cc3)c(-c3ccccc3)c12` . Reported pIC50? 6.11

###

Assay protocol: Inhibition of ACK1 in mouse C8 cells assessed as decrease in cell viability after 20 to 24 hrs
Measured attribute: pIC50
Here pIC50 is given on a logarithmic scale as minus log10 of the concentration in mol/L.

>  <Compound structure>
CN(C)S(=O)(=O)c1ccc(-c2[nH]c3ncnc(NC[C@@H]4CCCO4)c3c2-c2ccccc2)cc1

>  <pIC50>
7.05

$$$$

Entry under review: `COc1cccc(-c2c(-c3ccc(OCCN4CCCC4)cc3)[nH]c3ncnc(NC[C@@H]4CCCO4)c23)c1` . Reported pIC50? 6.80

What do you get for `CS(=O)(=O)c1ccc(-c2[nH]c3ncnc(NC[C@@H]4CCCO4)c3c2-c2ccccc2)cc1` ? 7.00

What do you get for `CO[C@@H]1CCC[C@H]1CNc1ncnc2[nH]c(-c3ccc(OCCN(C)C)cc3)c(-c3ccccc3)c12` ? 5.89
